Numbers sourced from ChEMBL document CHEMBL1147729.

test: Cmax in rat ventral prostate at 3 mg/kg, po; type: ADME, organism-based, Prostate gland; parameters: dose 3 mg/kg, route oral
property: Cmax (ng/mL)
Field format: number, assumed ng/mL, no unit text.

Req: Recorded Cmax of C[C@@H]1CN(c2ccc(C#N)c(C(F)(F)F)c2)[C@@H](C)CN1C(=O)Nc1ccc(C(F)(F)F)nc1 (racemic) , please.
Resp: 1560

Req: Recorded Cmax of CC(O)(CS(=O)(=O)c1ccc(F)cc1)C(=O)Nc1ccc(C#N)c(C(F)(F)F)c1 (configuration not stated) [BICALUTAMIDE] , please.
Resp: 1990
